Molecular target: T1, EsCas13d, nuclease-dead (Eubacterium siraeum, UniProt B0MS50, R295A;H300A;R849A;H854A)
T1 sequence: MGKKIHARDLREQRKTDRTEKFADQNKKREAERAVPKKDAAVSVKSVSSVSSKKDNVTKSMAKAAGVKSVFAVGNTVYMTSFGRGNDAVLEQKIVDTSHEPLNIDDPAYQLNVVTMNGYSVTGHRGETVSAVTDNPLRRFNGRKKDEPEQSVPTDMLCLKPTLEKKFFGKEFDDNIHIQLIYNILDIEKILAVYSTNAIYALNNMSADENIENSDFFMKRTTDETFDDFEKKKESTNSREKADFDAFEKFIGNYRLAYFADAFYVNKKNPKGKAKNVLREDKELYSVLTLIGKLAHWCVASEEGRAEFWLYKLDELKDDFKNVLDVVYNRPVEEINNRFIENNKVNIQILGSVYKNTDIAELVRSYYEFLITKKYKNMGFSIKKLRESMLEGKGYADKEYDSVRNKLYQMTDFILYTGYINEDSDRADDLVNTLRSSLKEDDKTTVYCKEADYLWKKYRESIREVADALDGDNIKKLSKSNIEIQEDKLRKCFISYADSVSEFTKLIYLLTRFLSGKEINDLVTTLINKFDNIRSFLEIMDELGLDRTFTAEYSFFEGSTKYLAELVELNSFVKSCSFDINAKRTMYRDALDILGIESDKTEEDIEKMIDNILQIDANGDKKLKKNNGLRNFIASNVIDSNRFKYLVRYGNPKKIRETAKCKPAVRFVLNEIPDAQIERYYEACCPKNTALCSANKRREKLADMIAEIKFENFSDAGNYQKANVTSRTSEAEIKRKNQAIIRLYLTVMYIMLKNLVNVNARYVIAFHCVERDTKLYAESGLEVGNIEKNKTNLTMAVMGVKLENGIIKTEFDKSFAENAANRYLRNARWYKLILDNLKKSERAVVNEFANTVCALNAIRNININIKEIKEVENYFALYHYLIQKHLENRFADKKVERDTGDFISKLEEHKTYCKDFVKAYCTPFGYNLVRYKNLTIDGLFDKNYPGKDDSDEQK
Test: crRNA (strand 1, pre-loaded); Mg2+; 40 mM Tris-HCl pH 7.5, 150 mM NaCl, 6 mM MgCl2, 1 mM DTT, 0.1% Tween-20, 0.2 mg/ml BSA; 25 C; 10 min per concentration, then washed
Details: tags: His6-TwinStrep-SUMO cleaved; N-terminal SNAP kept (SNAP-Surface 488); label: 3' end held by stalled T7 RNA polymerase
pKd: −log10 of the molar value.
Reported pKd is given for each of the following binders.
readout.kind: pKd

[
  {
    "binder": "target 1 insC 3' of 15,insG 3' of 1 (mixed) RNA 1: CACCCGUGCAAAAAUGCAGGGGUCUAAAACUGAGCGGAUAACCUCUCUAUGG RNA 2: GGGAAUGGAUCCACAUCUACGAAUUCGUACCAUAGAGCAGGUUAUCCGCUCAGCCGAGAUCGGAAGAGCACACGU",
    "recorded.value": 7.78
  },
  {
    "binder": "target 1 insG 3' of 10,insG 3' of 4 (mixed) RNA 1: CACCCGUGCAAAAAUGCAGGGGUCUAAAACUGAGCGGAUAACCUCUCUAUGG RNA 2: GGGAAUGGAUCCACAUCUACGAAUUCGUACCAUAGAGAGGUUGAUCCGCGUCACCGAGAUCGGAAGAGCACACGU",
    "recorded.value": 7.46
  },
  {
    "binder": "target 1 C2U,C6A (mixed) RNA 1: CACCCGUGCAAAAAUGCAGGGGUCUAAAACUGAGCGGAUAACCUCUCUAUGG RNA 2: GGGAAUGGAUCCACAUCUACGAAUUCGUACCAUAGAGAGGUUAUCAGCUUACCGAGAUCGGAAGAGCACACGU",
    "recorded.value": 8.22
  },
  {
    "binder": "target 1 A9C,A14G (mixed) RNA 1: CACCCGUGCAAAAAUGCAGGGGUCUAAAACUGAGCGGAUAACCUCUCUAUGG RNA 2: GGGAAUGGAUCCACAUCUACGAAUUCGUACCAUAGAGGGGUUCUCCGCUCACCGAGAUCGGAAGAGCACACGU",
    "recorded.value": 7.53
  },
  {
    "binder": "target 1 MT 5'PFS CCG 3'PFS UCG (mixed) RNA 1: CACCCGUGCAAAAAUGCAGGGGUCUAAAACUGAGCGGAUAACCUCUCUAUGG RNA 2: GGGAAUGGAUCCACAUCUACGAAUUCCCGCCAUAGAGAGGUUAUCCGCUCAUCGAGAUCGGAAGAGCACACGU",
    "recorded.value": 8.47
  },
  {
    "binder": "target 2 MT 5'PFS AGA 3'PFS CAA (mixed) RNA 1: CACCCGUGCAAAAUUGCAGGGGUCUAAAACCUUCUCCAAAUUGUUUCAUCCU RNA 2: GGGAAUGGAUCCACAUCUACGAAUUCAGAAGGAUGAAACAAUUUGGAGAAGCAAAGAUCGGAAGAGCACACGU",
    "recorded.value": 8.46
  },
  {
    "binder": "target 1 insU 3' of 17,insG 3' of 4 (mixed) RNA 1: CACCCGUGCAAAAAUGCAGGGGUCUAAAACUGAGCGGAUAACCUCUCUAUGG RNA 2: GGGAAUGGAUCCACAUCUACGAAUUCGUACCAUAGUAGAGGUUAUCCGCGUCACCGAGAUCGGAAGAGCACACGU",
    "recorded.value": 7.84
  },
  {
    "binder": "target 1 insG 3' of 19,insA 3' of 13 (mixed) RNA 1: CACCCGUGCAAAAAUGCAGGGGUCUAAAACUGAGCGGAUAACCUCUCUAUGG RNA 2: GGGAAUGGAUCCACAUCUACGAAUUCGUACCAUGAGAGAGAGUUAUCCGCUCACCGAGAUCGGAAGAGCACACGU",
    "recorded.value": 7.33
  }
]
